Sourced from ChEMBL document CHEMBL3244233

Collected viability at 100 µM values appear next to each entry.
- experiment: Growth inhibition of human Nc37 cells assessed as viable cells at 10^-4 M after 72 hrs relative to control
- Assay type: functional
- conditions: NC-37, 72 h, read-out: Activity
test-readout: viability at 100 µM (%)

[[record]]
compound = "CCCCNC(=O)Nc1ncnc2c1ncn2C(=O)NCCCC"
uom = "%"
endpoint_value = 90

[[record]]
compound = "Cc1ccc(NC(=O)Nc2[nH]cnc3ncnc2-3)cc1"
uom = "%"
endpoint_value = 90

[[record]]
compound = "CCCCNC(=S)n1cnc2c(N)ncnc21"
uom = "%"
endpoint_value = 60

[[record]]
compound = "CNC(=O)n1cnc2c(NC)ncnc21"
uom = "%"
endpoint_value = 30

[[record]]
compound = "CNC(=O)Nc1ncnc2c1ncn2C(=O)NC"
uom = "%"
endpoint_value = 90

[[record]]
compound = "CCCCNC(=O)Nc1ncnc2[nH]cnc12"
uom = "%"
endpoint_value = 60

[[record]]
compound = "C=CCNC(=O)Nc1ncnc2[nH]cnc12"
uom = "%"
endpoint_value = 60

[[record]]
compound = "CC(=O)OC[C@H]1O[C@@H](n2cnc3c(NC(=O)Nc4ccccc4Cl)ncnc32)[C@H](OC(C)=O)[C@@H]1OC(C)=O"
uom = "%"
endpoint_value = 30

[[record]]
compound = "CC(OCc1ccccc1)C(NC(=O)n1cnc2c(N)ncnc21)C(=O)OCc1ccccc1 (configuration not stated)"
uom = "%"
endpoint_value = 60

[[record]]
compound = "Nc1ncnc2c1ncn2C(=O)NC(Cc1ccccc1)C(=O)OCc1ccccc1 (configuration not stated)"
uom = "%"
endpoint_value = 60

[[record]]
compound = "O=C(Nc1cccc2ccccc12)Nc1ncnc2c1ncn2C(=O)Nc1cccc2ccccc12"
uom = "%"
endpoint_value = 30

[[record]]
compound = "O=C(Nc1ccccc1)Nc1ncnc2[nH]cnc12"
uom = "%"
endpoint_value = 60

[[record]]
compound = "O=C(Nc1ccccc1C(F)(F)F)Nc1ncnc2[nH]cnc12"
uom = "%"
endpoint_value = 30

[[record]]
compound = "COc1ccc(NC(=O)Nc2ncnc3c2ncn3C(=O)Nc2ccc(OC)cc2)cc1"
uom = "%"
endpoint_value = 90

[[record]]
compound = "CCOC(=O)CNC(=O)N(C)c1ncnc2c1ncn2C(=O)NCC(=O)OCC"
uom = "%"
endpoint_value = 90

[[record]]
compound = "CNC(=O)n1cnc2c(N)ncnc21"
uom = "%"
endpoint_value = 30

[[record]]
compound = "CNC(=S)Nc1ncnc2[nH]cnc12"
uom = "%"
endpoint_value = 60

